- tested-on: LIM domain kinase 1 (Homo sapiens)
- Sequence (P53667 whole entry, the tested form may be a part): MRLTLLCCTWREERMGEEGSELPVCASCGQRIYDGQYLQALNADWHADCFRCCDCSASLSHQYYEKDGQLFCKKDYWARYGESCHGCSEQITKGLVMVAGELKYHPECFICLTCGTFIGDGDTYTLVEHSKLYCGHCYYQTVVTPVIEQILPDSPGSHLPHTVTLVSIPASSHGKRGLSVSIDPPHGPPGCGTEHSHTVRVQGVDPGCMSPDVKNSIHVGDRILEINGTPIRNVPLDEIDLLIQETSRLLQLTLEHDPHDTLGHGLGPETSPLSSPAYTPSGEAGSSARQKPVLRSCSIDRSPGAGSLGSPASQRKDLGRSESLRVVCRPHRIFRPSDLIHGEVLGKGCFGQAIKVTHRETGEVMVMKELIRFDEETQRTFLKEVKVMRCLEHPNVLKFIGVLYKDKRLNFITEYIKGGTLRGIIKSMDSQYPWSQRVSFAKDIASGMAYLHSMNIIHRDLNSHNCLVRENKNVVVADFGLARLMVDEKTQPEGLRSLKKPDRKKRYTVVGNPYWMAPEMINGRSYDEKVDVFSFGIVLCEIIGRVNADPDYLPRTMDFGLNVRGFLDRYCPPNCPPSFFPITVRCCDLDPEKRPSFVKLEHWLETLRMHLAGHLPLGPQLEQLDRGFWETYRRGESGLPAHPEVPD
assay-readout: IC50 (nM)

chemical_structure=CC(C)n1cc(Nc2ncc3ccc(=O)n(C(C)C)c3n2)cn1 tested_on="LIM domain kinase 1 (Homo sapiens)" assay_readout=IC50 unit_symbol=nM value_measured=137

meta.source: ChEMBL document CHEMBL5143584
